Target: T1, Recombinant Human CD14/His Protein (B294801) (human, UniProt P08571 20-352, limits assumed)
T1 construct: Bought His-tagged recombinant human CD14; also called recombinant human CD14 antigen; CD14 antigen; not shown: histidine tag
T1 sequence (looked up): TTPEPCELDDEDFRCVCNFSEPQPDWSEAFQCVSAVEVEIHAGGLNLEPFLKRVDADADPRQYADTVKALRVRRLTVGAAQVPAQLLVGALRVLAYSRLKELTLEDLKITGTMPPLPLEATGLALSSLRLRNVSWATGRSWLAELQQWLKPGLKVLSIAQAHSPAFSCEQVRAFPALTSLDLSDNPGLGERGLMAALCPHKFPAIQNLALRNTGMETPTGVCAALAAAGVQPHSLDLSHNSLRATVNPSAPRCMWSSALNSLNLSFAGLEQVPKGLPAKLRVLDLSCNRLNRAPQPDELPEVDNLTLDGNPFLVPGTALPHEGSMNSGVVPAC
Assay: SPR (Biacore 8K), antibody captured (1 ug/mL) on Protein A chip, CD14-His analyte 0.1953125-25 nM, 1:1 binding
Listed binders paired with reported Change Factor (KD relative to mouse antibody D6DD3D001)
reported_endpoint: Change Factor (KD relative to mouse antibody D6DD3D001)

binder	readout_number
Antibody No. MPDDAD001 (HU1127-hVH3/hVL3-1) (antibody, IgG1, V domains shown, D6DD3D014 with the light chain PTM site NS (VL amino acids 34, 35) changed to DS; Tested as a recombinant antibody with hFc tag, 144 kDa) VH: QLQLQESGPGLVKPSETLSLTCTVSGGSISSDSAWNWIRQPPGKGLEWIGYISYSGSTSYNPSLKSRVTISRDTSKNQFSLKLSSVTAADTAVYYCVRGLRFAYWGQGTLVTVSS VL: DIQLTQSPSSLSASVGDRVTITCRASESVDSYVDSFLHWYQQKPGKAPKLLIYRASNLQSGVPSRFSGSGSRTDFTLTISSLQPEDVATYYCQQSNEDPYTFGQGTKLEIK	8.66
Antibody No. MPDDAD003 (HU1127-hVH3/hVL3-3) (antibody, V domains shown, D6DD3D014 with the light chain PTM site NS (VL amino acids 34, 35) changed to TS; Tested as a recombinant antibody with hFc tag, 144 kDa) VH: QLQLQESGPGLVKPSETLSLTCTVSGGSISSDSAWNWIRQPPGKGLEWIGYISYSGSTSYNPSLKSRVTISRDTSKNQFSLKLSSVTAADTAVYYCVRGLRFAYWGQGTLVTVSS VL: DIQLTQSPSSLSASVGDRVTITCRASESVDSYVTSFLHWYQQKPGKAPKLLIYRASNLQSGVPSRFSGSGSRTDFTLTISSLQPEDVATYYCQQSNEDPYTFGQGTKLEIK	2.34
Antibody No. MPDDAD002 (HU1127-hVH3/hVL3-2) (antibody, V domains shown, D6DD3D014 with the light chain PTM site NS (VL amino acids 34, 35) changed to SS; Tested as a recombinant antibody with hFc tag, 144 kDa) VH: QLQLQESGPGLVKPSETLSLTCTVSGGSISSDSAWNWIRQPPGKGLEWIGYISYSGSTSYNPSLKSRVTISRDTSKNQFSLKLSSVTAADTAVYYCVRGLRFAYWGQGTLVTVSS VL: DIQLTQSPSSLSASVGDRVTITCRASESVDSYVSSFLHWYQQKPGKAPKLLIYRASNLQSGVPSRFSGSGSRTDFTLTISSLQPEDVATYYCQQSNEDPYTFGQGTKLEIK	3.24
